Entry source: the supplement of paper PMC10307832

- Test system: NCI-H661
- Method Description: relative viability (nuclei count vs DMSO), 5 days (fraction); higher = more cells survive
- Experimental Conditions: first compound 0.01581 µM
Recorded relative viability, one value per entry.
Give the figure only, with no unit attached.

Examples from the recorded data:
Compound | Val
CC1(C)CCC(c2ccc(Cl)cc2)=C(CN2CCN(c3ccc(C(=O)NS(=O)(=O)c4ccc(N[C@H](CCN5CCOCC5)CSc5ccccc5)c(S(=O)(=O)C(F)(F)F)c4)cc3)CC2)C1 [Navitoclax] + O=C(CCCCCCC(=O)Nc1ccccc1)NO [Vorinostat] (partner 1 µM) | 0.727
CC1(C)CCC(c2ccc(Cl)cc2)=C(CN2CCN(c3ccc(C(=O)NS(=O)(=O)c4ccc(N[C@H](CCN5CCOCC5)CSc5ccccc5)c(S(=O)(=O)C(F)(F)F)c4)cc3)CC2)C1 [Navitoclax] + Cc1nc(Nc2ncc(C(=O)Nc3c(C)cccc3Cl)s2)cc(N2CCN(CCO)CC2)n1 [Dasatinib] (partner 0.075 µM) | 1.11
CC1(C)CCC(c2ccc(Cl)cc2)=C(CN2CCN(c3ccc(C(=O)NS(=O)(=O)c4ccc(N[C@H](CCN5CCOCC5)CSc5ccccc5)c(S(=O)(=O)C(F)(F)F)c4)cc3)CC2)C1 [Navitoclax] + CS(=O)(=O)CCNCc1ccc(-c2ccc3ncnc(Nc4ccc(OCc5cccc(F)c5)c(Cl)c4)c3c2)o1 [Lapatinib] (partner 2 µM) | 0.613
CC1(C)CCC(c2ccc(Cl)cc2)=C(CN2CCN(c3ccc(C(=O)NS(=O)(=O)c4ccc(N[C@H](CCN5CCOCC5)CSc5ccccc5)c(S(=O)(=O)C(F)(F)F)c4)cc3)CC2)C1 [Navitoclax] + COc1cccc2cc(-c3nc([C@H]4CC[C@H](C(=O)O)CC4)n4ncnc(N)c34)[nH]c12 [OSI-027] (partner 0.5 µM) | 0.775

Now for another entry.
Reported relative viability of CC1(C)CCC(c2ccc(Cl)cc2)=C(CN2CCN(c3ccc(C(=O)NS(=O)(=O)c4ccc(N[C@H](CCN5CCOCC5)CSc5ccccc5)c(S(=O)(=O)C(F)(F)F)c4)cc3)CC2)C1 [Navitoclax] + C[C@@H](Oc1cc(-c2cnn(C3CCNCC3)c2)cnc1N)c1c(Cl)ccc(F)c1Cl [Crizotinib] (partner 1 µM) : 0.964

* * *

- Test system: HCC-366
- Method Description: relative viability (nuclei count vs DMSO), 5 days (fraction); higher = more cells survive
- Experimental Conditions: first compound 0.253 µM
Label true (1) when relative viability < 0.2; otherwise false (0).

Would you please look over these solved cases?
Compound | Classification
C=C1C(=O)O[C@@H](CCCCCCCC)[C@@H]1C(=O)O [C-75] + CC(=O)Nc1cccc(-n2c(=O)n(C3CC3)c(=O)c3c(Nc4ccc(I)cc4F)n(C)c(=O)c(C)c32)c1 [Trametinib] (partner 0.02 µM) | false (0)
C=C1C(=O)O[C@@H](CCCCCCCC)[C@@H]1C(=O)O [C-75] + Nc1nc2[nH]cc(CCc3ccc(C(=O)N[C@@H](CCC(=O)O)C(=O)O)cc3)c2c(=O)[nH]1 [Pemetrexed] (partner 0.2 µM) | true (1)
Oc1nc(-c2ccc(C(F)(F)F)cc2)nc2c1CSCC2 [XAV939] + NC(=O)Nc1cc(-c2cccc(F)c2)sc1C(=O)N[C@H]1CCCNC1 [AZD7762] (partner 0.2 µM) | false (0)
Oc1nc(-c2ccc(C(F)(F)F)cc2)nc2c1CSCC2 [XAV939] + O=C(c1cc(Cc2n[nH]c(=O)c3ccccc23)ccc1F)N1CCN(C(=O)C2CC2)CC1 [Olaparib] (partner 8 µM) | false (0)

As a next step, examine the compound that follows.
# input Does C=C1C(=O)O[C@@H](CCCCCCCC)[C@@H]1C(=O)O [C-75] + CS(=O)(=O)N1CCN(Cc2cc3nc(-c4cccc5[nH]ncc45)nc(N4CCOCC4)c3s2)CC1 [Pictilisib] (partner 1 µM) have relative viability strictly under 0.2?
# output true (1)

* * *

Documented relative viability across a set of compounds
- Tested on: A-427
- Method Description: relative viability (nuclei count vs DMSO), 5 days (fraction); higher = more cells survive
- Experimental Conditions: first compound 0.08 µM
Returns: the value as a bare number; no unit string appended.

Compound | relative viability
C=C1C(=O)O[C@@H](CCCCCCCC)[C@@H]1C(=O)O [C-75] + C[C@]1(O)C[C@@H](c2nc(-c3ccc4ccc(-c5ccccc5)nc4c3)c3c(N)nccn32)C1 [Linsitinib] (partner 1 µM) | 1.16
C=C1C(=O)O[C@@H](CCCCCCCC)[C@@H]1C(=O)O [C-75] + O=C(c1cc(Cc2n[nH]c(=O)c3ccccc23)ccc1F)N1CCN(C(=O)C2CC2)CC1 [Olaparib] (partner 8 µM) | 0.718
Oc1nc(-c2ccc(C(F)(F)F)cc2)nc2c1CSCC2 [XAV939] + O=C(c1cc(Cc2n[nH]c(=O)c3ccccc23)ccc1F)N1CCN(C(=O)C2CC2)CC1 [Olaparib] (partner 8 µM) | 0.785
Oc1nc(-c2ccc(C(F)(F)F)cc2)nc2c1CSCC2 [XAV939] + C[C@]1(O)C[C@@H](c2nc(-c3ccc4ccc(-c5ccccc5)nc4c3)c3c(N)nccn32)C1 [Linsitinib] (partner 1 µM) | 1.02

Per the record, Oc1nc(-c2ccc(C(F)(F)F)cc2)nc2c1CSCC2 [XAV939] + N=C(N)NC(=N)NCCc1ccccc1 [Phenformin] (partner 250 µM) has relative viability of 0.365

* * *

Recorded relative viability by entry
- Test system: NCI-H647
- Method Description: relative viability (nuclei count vs DMSO), 5 days (fraction); higher = more cells survive
- Experimental Conditions: first compound 1.265 µM
Respond with the number and no other words.

Compound | Assayed System | Experimental Endpoint | Val
O=C(O)c1ccc(-c2c[nH]c3ncc(-c4ccccc4)cc23)cc1C1CCCC1 + CS(=O)(=O)N1CCN(Cc2cc3nc(-c4cccc5[nH]ncc45)nc(N4CCOCC4)c3s2)CC1 [Pictilisib] (partner 1 µM) | NCI-H647 | relative viability | 0.344
O=C(O)c1ccc(-c2c[nH]c3ncc(-c4ccccc4)cc23)cc1C1CCCC1 + CS(=O)(=O)CCNCc1ccc(-c2ccc3ncnc(Nc4ccc(OCc5cccc(F)c5)c(Cl)c4)c3c2)o1 [Lapatinib] (partner 2 µM) | NCI-H647 | relative viability | 0.801
O=C(O)c1ccc(-c2c[nH]c3ncc(-c4ccccc4)cc23)cc1C1CCCC1 + CC1(C)CCC(c2ccc(Cl)cc2)=C(CN2CCN(c3ccc(C(=O)NS(=O)(=O)c4ccc(N[C@H](CCN5CCOCC5)CSc5ccccc5)c(S(=O)(=O)C(F)(F)F)c4)cc3)CC2)C1 [Navitoclax] (partner 0.5 µM) | NCI-H647 | relative viability | 0.713

Documented relative viability of O=C(O)c1ccc(-c2c[nH]c3ncc(-c4ccccc4)cc23)cc1C1CCCC1 + O=C(CCCCCCC(=O)Nc1ccccc1)NO [Vorinostat] (partner 1 µM) : 0.361

For this compound ( O=C(O)c1ccc(-c2c[nH]c3ncc(-c4ccccc4)cc23)cc1C1CCCC1 + Cc1nc(NC(=O)N2CCC[C@H]2C(N)=O)sc1-c1ccnc(C(C)(C)C(F)(F)F)c1 [Alpelisib] (partner 2 µM) ), measured relative viability is 0.766

Lab note: O=C(O)c1ccc(-c2c[nH]c3ncc(-c4ccccc4)cc23)cc1C1CCCC1 + N=C(N)NC(=N)NCCc1ccccc1 [Phenformin] (partner 250 µM) gave relative viability of 0.38

Value of relative viability reported for the compound O=C(O)c1ccc(-c2c[nH]c3ncc(-c4ccccc4)cc23)cc1C1CCCC1 + CC(=O)c1c(C)c2cnc(Nc3ccc(N4CCNCC4)cn3)nc2n(C2CCCC2)c1=O [Palbociclib] (partner 0.5 µM) is 0.33

In plain terms, O=C(O)c1ccc(-c2c[nH]c3ncc(-c4ccccc4)cc23)cc1C1CCCC1 + C[C@@H](Oc1cc(-c2cnn(C3CCNCC3)c2)cnc1N)c1c(Cl)ccc(F)c1Cl [Crizotinib] (partner 1 µM) has a documented relative viability of 0.77

* * *

- System: NCI-H1975
- Method Description: relative viability (nuclei count vs DMSO), 5 days (fraction); higher = more cells survive
- Experimental Conditions: first compound 0.1265 µM
Experimental Endpoint: relative viability
Lab note: jot the number down without any unit.

The recorded relative viability for entry O=C(O)c1ccc(-c2c[nH]c3ncc(-c4ccccc4)cc23)cc1C1CCCC1 + C[C@]1(O)C[C@@H](c2nc(-c3ccc4ccc(-c5ccccc5)nc4c3)c3c(N)nccn32)C1 [Linsitinib] (partner 1 µM) equals 0.935

The reported value for O=C(O)c1ccc(-c2c[nH]c3ncc(-c4ccccc4)cc23)cc1C1CCCC1 + CC(=O)Nc1cccc(-n2c(=O)n(C3CC3)c(=O)c3c(Nc4ccc(I)cc4F)n(C)c(=O)c(C)c32)c1 [Trametinib] (partner 0.02 µM) in terms of relative viability is 0.435

relative viability for O=C(O)c1ccc(-c2c[nH]c3ncc(-c4ccccc4)cc23)cc1C1CCCC1 + CC(C)C[C@H](NC(=O)[C@H](Cc1ccccc1)NC(=O)c1cnccn1)B(O)O [Bortezomib] (partner 0.002 µM) is 0.391

For reference, reported relative viability for O=C(O)c1ccc(-c2c[nH]c3ncc(-c4ccccc4)cc23)cc1C1CCCC1 + O=C(CCCCCCC(=O)Nc1ccccc1)NO [Vorinostat] (partner 1 µM) stands at 0.763
